This section presents molecules with their documented inhibition values.
Tested target: Gag-Pol polyprotein (Human immunodeficiency virus type 1 group M subtype B (isolate HXB2)) (UniProt P04585)
Protocol details: RNase H inhibition, HIV 1 Gag Pol polyprotein, FRET biochemical assay, screening (AID 372)
Test settings: HIV-1 RT RNase H, FRET RNA/DNA substrate fluorescence; at 10 µM; stronger effect = higher value
Hit rate of the full screen: of about 100,000 compounds, about 770 (0.77%) were called active. Only a selection was taken, and actives are over-represented in it overall.
API: value field is a number in %; no unit string.

Molecule	inhibition (%)
CCc1c(C)sc(NC(=O)c2cccc(Br)c2)c1C(=O)OC	16

Q) Quick one: inhibition for "CCOc1cc(CN2CCN(c3ccccn3)CC2)ccc1O" ?
A) 15

Q) Try the molecule "Cc1cc(C)c2nc3s/c(=C\c4ccc(Cl)cc4Cl)c(=O)n3c2c1"
A) 0

Q) Next entry: "COc1cc(/C=C2/SC(=S)NC2=O)ccc1OCc1ccccc1C#N"
A) 46
